Test: In-vivo pharmacokinetic study in rats
Design: species or system SD female rats
Conditions: female, SD, rat, plasma, po, intragastric administration, 5 mg/kg, read-out: AUC0-24h
Attribute Measured: AUC(0-t) (ng·h/mL)
Only the number, expressed in ng·h/mL, is required.

Here is how some compounds turned out for AUC(0-t).
[[record]]
item_smiles = "COc1ccc2c(c1S(=O)(=O)Nc1noc3cc(Cn4cccn4)nc(OC)c13)OCC2"
value_reported = 215000

[[record]]
item_smiles = "COc1cc2c(cc1S(=O)(=O)Nc1noc3cc(Cn4cccn4)nc(OC)c13)CCO2"
value_reported = 26200

[[record]]
item_smiles = "COc1nc(Cn2cccn2)cc2onc(NS(=O)(=O)c3cccc4c3OCCO4)c12"
value_reported = 11800


Here is another compound to look at.
In: Tell me AUC(0-t) reported for "COc1nc(Cn2cccn2)cc2onc(NS(=O)(=O)c3cccc4ccoc34)c12"
Out: 18500
